Reference for the values: ChEMBL document CHEMBL1641497

Target: Voltage-dependent N-type calcium channel subunit alpha-1B (Homo sapiens)
Sequence (Q00975 whole entry, looked up): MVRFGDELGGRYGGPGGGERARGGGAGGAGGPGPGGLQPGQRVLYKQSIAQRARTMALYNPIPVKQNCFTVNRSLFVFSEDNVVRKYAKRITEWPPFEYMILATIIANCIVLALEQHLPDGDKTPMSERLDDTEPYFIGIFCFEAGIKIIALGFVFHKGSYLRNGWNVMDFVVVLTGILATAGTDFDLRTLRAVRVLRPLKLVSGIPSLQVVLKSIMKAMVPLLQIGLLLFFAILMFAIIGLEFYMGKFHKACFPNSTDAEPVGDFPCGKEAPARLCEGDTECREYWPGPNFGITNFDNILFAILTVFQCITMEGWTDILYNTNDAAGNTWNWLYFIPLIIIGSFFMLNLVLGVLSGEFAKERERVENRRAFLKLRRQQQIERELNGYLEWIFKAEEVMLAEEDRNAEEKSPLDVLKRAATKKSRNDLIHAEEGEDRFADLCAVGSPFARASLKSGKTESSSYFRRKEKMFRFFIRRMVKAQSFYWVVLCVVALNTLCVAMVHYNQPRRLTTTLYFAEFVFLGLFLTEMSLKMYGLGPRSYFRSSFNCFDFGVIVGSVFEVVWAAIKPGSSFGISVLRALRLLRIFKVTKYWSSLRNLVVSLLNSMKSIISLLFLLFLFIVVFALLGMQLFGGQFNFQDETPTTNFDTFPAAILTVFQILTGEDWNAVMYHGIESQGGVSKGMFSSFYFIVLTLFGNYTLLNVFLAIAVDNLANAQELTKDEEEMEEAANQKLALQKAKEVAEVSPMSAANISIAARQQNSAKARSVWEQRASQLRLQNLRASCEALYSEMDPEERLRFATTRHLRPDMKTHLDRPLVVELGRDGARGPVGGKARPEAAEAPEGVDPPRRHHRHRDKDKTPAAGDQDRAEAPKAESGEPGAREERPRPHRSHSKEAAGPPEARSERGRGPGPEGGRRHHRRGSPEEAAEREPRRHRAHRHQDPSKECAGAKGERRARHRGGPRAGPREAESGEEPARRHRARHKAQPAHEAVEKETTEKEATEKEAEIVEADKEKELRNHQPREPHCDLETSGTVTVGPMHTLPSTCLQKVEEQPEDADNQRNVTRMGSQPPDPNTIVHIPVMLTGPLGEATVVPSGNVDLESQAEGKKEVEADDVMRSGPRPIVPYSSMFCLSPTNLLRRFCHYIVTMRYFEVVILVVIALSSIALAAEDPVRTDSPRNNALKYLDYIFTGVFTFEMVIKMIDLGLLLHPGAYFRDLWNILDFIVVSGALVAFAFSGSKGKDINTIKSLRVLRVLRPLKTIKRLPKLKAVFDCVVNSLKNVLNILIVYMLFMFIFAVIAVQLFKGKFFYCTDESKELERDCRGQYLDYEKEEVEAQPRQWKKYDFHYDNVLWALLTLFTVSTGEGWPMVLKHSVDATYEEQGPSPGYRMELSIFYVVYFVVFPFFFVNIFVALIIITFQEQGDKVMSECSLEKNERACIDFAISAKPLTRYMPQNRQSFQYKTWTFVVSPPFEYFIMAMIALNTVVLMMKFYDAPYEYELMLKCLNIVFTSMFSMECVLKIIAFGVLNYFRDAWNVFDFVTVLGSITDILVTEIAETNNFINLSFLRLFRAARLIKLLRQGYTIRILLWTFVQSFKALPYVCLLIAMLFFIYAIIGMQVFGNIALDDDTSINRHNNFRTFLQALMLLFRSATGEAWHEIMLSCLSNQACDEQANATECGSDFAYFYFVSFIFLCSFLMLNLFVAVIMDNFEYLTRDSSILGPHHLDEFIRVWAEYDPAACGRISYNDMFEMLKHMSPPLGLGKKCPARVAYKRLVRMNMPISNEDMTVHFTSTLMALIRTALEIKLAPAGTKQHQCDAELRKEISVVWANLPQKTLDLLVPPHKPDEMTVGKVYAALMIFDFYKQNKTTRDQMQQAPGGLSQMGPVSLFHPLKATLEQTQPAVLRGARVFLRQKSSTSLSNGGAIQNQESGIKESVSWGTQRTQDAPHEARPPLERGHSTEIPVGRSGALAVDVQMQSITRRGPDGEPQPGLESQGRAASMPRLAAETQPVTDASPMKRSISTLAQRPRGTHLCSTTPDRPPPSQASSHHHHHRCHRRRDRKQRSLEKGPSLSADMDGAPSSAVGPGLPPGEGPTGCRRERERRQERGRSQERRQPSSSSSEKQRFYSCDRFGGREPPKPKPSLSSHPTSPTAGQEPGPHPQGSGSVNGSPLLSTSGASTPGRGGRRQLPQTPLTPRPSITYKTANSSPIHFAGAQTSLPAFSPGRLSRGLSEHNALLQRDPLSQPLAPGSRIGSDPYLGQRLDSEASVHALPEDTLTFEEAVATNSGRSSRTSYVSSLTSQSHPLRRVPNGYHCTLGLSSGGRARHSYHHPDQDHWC
Test: Blockade of Cav2.2 channel at 10 uM by fluorescent calcium-influx assay

- Compound: "COCCn1c(-c2cc(C)cc(C)c2)cc2cc(C(C)(C)C(=O)NC(C)(C)C)ccc21"
  inhibition: "99%"
- Compound: "Cc1cc(C)cc(-c2cc3cc(C(C)(C)C(=O)NCC(F)(F)F)ccc3n2CC(C)O)c1 (centres undefined)"
  inhibition: "91%"
- Compound: "Cc1cc(C)cc(-c2cc3cc(C(=O)NC(C)(C)C)ccc3n2CC(C)O)c1 (centres undefined)"
  inhibition: "97%"
- Compound: "COC(=O)C(C)(C)c1ccc2c(c1)cc(-c1cc(C)cc(C)c1)n2CC(C)O (centres undefined)"
  inhibition: "70%"
- Compound: "Cc1cc(C)cc(-c2cc3cc(C(C)(C)C(=O)NC(C)(C)C)ccc3n2CC(=O)OC(C)(C)C)c1"
  inhibition: "91%"
- Compound: "Cc1cc(C)cc(-c2cc3cc(C(C)(C)C(=O)NC(C)(C)C)ccc3[nH]2)c1"
  inhibition: "78%"
- Compound: "Cc1cc(C)cc(-c2cc3cc(C(C)(C)C(=O)NC(C)(C)C)ccc3n2Cc2ccc(Cl)cc2)c1"
  inhibition: "36%"
- Compound: "Cc1cc(C)cc(-c2cc3cc(C(C)(C)C(=O)NC(C)(C)C)ccc3n2Cc2c(C)noc2C)c1"
  inhibition: "99%"
- Compound: "Cc1cc(C)cc(-c2cc3cc(C(C)(C)CO)ccc3n2CC(C)O)c1 (centres undefined)"
  inhibition: "44%"
- Compound: "Cc1cc(C)cc(-c2cc3cc(C(C)(C)C(=O)NC4CC4)ccc3n2CC(C)O)c1 (centres undefined)"
  inhibition: "89%"
- Compound: "Cc1cc(C)cc(-c2cc3cc(C(C)(C)C(=O)NC(C)(C)C)ccc3n2C(=O)OC(C)(C)C)c1"
  inhibition: "59%"
- Compound: "Cc1cc(C)cc(-c2cc3cc(OC(F)(F)F)ccc3n2CC(C)O)c1 (centres undefined)"
  inhibition: "36%"
- Compound: "Cc1cc(C)cc(-c2cc3cc(C(C)(C)C(=O)N(C)C)ccc3n2CC(C)O)c1 (centres undefined)"
  inhibition: "89%"
- Compound: "Cc1cc(C)cc(-c2cc3cc(C(C)(C)C(=O)NC(C)(C)C)ccc3n2CC(=O)NC(C)(C)C)c1"
  inhibition: "98%"

---

Experiment: Volume of distribution at steady state in rat at 1 mg/kg, iv and 3 mg/kg, po
Type: ADME, organism-based
Conditions: in vivo, read-out: Vdss
Value type: Vd

- Compound string: "CC(C)(C)NC(=O)Cn1c(-c2ccc(OC(F)(F)F)cc2)cc2cc(C(C)(C)C(=O)NC(C)(C)C)ccc21"
  Readout value: "5.1 L/kg"

---

Test: Metabolic stability in rat liver microsomes assessed as compound remaining after 60 mins
Format: ADME, Microsome
Conditions: read-out: Stability

- Compound string: "CC(C)(C)NC(=O)Cn1c(-c2ccccc2OC(F)(F)F)cc2cc(C(C)(C)C(=O)NC(C)(C)C)ccc21"
  Value unit: "%"
  remaining at 1 h: 2.5
- Compound string: "CC(C)(C)NC(=O)Cn1c(-c2cccc(OC(F)(F)F)c2)cc2cc(C(C)(C)C(=O)NC(C)(C)C)ccc21"
  Value unit: "%"
  remaining at 1 h: 22
- Compound string: "CC(C)(C)NC(=O)Cn1c(-c2ccc(OC(F)(F)F)cc2)cc2cc(C(C)(C)C(=O)NC(C)(C)C)ccc21"
  Value unit: "%"
  remaining at 1 h: 20

---

Molecular target: Cav1.2 (voltage-dependent L-type calcium channel subunit alpha-1C) (Homo sapiens)
Sequence (Q13936 whole entry): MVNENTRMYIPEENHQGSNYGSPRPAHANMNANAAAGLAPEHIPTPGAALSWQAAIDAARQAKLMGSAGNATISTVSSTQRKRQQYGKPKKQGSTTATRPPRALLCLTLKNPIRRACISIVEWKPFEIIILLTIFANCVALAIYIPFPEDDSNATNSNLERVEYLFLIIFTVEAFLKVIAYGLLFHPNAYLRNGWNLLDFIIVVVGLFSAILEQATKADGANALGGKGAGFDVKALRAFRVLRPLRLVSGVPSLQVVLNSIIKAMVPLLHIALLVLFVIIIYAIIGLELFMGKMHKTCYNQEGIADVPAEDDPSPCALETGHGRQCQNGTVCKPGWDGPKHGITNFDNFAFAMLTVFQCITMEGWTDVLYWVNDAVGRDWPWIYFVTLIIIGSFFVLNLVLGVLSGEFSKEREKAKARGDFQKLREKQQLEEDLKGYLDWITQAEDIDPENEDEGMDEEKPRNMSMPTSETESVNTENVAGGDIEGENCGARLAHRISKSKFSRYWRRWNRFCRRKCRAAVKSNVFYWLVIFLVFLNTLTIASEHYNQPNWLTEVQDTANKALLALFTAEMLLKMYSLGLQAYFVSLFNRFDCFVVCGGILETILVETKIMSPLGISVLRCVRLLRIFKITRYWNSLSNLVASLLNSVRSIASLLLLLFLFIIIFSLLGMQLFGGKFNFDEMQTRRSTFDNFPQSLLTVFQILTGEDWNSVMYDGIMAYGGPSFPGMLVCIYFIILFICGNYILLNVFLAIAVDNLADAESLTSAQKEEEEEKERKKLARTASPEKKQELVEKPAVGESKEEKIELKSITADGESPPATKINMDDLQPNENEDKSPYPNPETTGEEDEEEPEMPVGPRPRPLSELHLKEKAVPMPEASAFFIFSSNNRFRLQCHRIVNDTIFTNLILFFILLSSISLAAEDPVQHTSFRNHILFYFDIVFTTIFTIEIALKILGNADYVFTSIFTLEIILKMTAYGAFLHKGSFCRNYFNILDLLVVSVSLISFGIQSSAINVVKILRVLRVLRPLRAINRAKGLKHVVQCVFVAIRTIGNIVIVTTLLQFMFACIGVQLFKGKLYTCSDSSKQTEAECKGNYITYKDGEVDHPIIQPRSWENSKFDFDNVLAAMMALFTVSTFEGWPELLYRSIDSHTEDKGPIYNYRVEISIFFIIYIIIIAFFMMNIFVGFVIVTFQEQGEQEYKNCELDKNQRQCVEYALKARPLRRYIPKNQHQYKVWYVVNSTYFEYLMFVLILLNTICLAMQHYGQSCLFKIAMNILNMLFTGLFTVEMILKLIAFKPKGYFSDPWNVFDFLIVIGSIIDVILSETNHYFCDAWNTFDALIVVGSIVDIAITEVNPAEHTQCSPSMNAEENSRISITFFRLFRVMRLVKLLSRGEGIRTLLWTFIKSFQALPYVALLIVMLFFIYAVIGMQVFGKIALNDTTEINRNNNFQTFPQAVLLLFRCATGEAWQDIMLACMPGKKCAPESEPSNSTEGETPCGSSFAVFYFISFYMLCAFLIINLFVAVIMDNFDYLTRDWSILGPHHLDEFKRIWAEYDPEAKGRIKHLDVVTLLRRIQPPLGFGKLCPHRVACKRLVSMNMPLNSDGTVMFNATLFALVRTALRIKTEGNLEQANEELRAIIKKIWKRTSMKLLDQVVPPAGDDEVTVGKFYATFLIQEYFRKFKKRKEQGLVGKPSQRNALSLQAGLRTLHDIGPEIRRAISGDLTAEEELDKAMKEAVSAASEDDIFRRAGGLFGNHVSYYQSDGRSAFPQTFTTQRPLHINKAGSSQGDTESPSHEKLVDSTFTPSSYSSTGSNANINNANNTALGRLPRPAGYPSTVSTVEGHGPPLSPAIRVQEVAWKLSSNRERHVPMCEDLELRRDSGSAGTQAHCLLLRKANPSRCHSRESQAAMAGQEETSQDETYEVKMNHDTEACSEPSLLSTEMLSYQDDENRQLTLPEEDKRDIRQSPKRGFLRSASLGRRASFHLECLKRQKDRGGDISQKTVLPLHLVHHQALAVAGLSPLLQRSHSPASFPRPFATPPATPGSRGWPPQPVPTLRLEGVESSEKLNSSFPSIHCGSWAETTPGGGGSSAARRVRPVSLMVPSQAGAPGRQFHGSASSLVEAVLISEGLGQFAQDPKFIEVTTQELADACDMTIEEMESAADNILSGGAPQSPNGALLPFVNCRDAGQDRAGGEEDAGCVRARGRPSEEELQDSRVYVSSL
Test: Blockade of Cav1.2 channel at 10 uM by fluorescent calcium-influx assay
Catalogue of inhibition at 10 µM readings, one per entry.
Value type: inhibition at 10 µM (%)

- Compound: "COc1ccccc1-c1cc2cc(C(C)(C)C(=O)NC(C)(C)C)ccc2n1CC(=O)NC(C)(C)C"
  Readout value: 60
- Compound: "Cc1cc(C)cc(-c2cc3cc(C(C)(C)C(=O)NC(C)(C)C)ccc3n2CC(=O)NC(C)(C)C)c1"
  Readout value: 78
- Compound: "CC(C)(C)NC(=O)Cn1c(C(C)(C)C)cc2cc(C(C)(C)C(=O)NC(C)(C)C)ccc21"
  Readout value: 47
- Compound: "Cc1cc(C)cc(-c2cc3cc(C(C)(C)C(=O)N(C)C)ccc3n2CC(C)O)c1 (stereo not given)"
  Readout value: 52
- Compound: "CC(C)(C)NC(=O)Cn1c(-c2ccc(F)cc2F)cc2cc(C(C)(C)C(=O)NC(C)(C)C)ccc21"
  Readout value: 93

---

Experiment: Half life in rat at 1 mg/kg, iv and 3 mg/kg, po
Type: ADME, organism-based
Conditions: in vivo
Value type: half-life (h)

- Compound string: "CC(C)(C)NC(=O)Cn1c(-c2ccc(OC(F)(F)F)cc2)cc2cc(C(C)(C)C(=O)NC(C)(C)C)ccc21"
  Readout value: 1.4
- Compound string: "CC(C)(C)NC(=O)Cn1c(-c2ccccc2OC(F)(F)F)cc2cc(C(C)(C)C(=O)NC(C)(C)C)ccc21"
  Readout value: 2.68
- Compound string: "CC(C)(C)NC(=O)Cn1c(-c2cccc(OC(F)(F)F)c2)cc2cc(C(C)(C)C(=O)NC(C)(C)C)ccc21"
  Readout value: 2.27

---

Catalogue of inhibition at 10 µM readings, one per entry.
Target: Cav1.2 (voltage-dependent L-type calcium channel subunit alpha-1C) (Homo sapiens)
Assay: Blockade of Cav1.2 channel at 10 uM by fluorescent calcium-influx assay
Value type: inhibition at 10 µM (%)

- Compound string: "CC(C)(C)NC(=O)Cn1c(-c2ccccc2)cc2cc(C(C)(C)C(=O)NC(C)(C)C)ccc21"
  Value unit: "%"
  Readout value: 79
- Compound string: "CC(C)(C)NC(=O)Cn1c(-c2ccccc2OC(F)(F)F)cc2cc(C(C)(C)C(=O)NC(C)(C)C)ccc21"
  Value unit: "%"
  Readout value: 79
- Compound string: "CC(C)(C)NC(=O)Cn1c(-c2ccc(F)cc2)cc2cc(C(C)(C)C(=O)NC(C)(C)C)ccc21"
  Value unit: "%"
  Readout value: 82

---

Catalogue of pEC50 readings, one per entry.
Molecular target: Nuclear receptor subfamily 1 group I member 2 (Homo sapiens, UniProt O75469)
Sequence (O75469 whole entry): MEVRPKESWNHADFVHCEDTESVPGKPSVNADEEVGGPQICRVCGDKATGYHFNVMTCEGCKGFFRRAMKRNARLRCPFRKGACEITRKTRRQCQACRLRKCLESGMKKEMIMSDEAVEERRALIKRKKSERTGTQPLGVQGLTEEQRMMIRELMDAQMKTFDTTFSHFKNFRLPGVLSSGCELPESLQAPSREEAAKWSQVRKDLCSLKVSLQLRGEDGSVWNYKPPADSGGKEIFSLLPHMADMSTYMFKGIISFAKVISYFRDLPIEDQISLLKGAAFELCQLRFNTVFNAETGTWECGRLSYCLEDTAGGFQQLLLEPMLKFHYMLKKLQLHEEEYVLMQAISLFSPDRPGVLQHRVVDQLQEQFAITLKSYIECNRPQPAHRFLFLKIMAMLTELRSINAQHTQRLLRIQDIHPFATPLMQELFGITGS
Experiment: Activity at PXR by induction assay
pEC50: −log10 of the molar value.

- Compound string: "CC(C)(C)NC(=O)Cn1c(-c2ccc(F)cc2F)cc2cc(C(C)(C)C(=O)NC(C)(C)C)ccc21"
  Experimental system: "Nuclear receptor subfamily 1 group I member 2 (Homo sapiens, UniProt O75469)"
  Relation sign: "="
  pEC50: 6.03
- Compound string: "CC(C)(C)NC(=O)Cn1c(C(C)(C)C)cc2cc(C(C)(C)C(=O)NC(C)(C)C)ccc21"
  Experimental system: "Nuclear receptor subfamily 1 group I member 2 (Homo sapiens, UniProt O75469)"
  Relation sign: "="
  pEC50: 6.24
- Compound string: "CC(C)(C)NC(=O)Cn1c(-c2cccc(OC(F)(F)F)c2)cc2cc(C(C)(C)C(=O)NC(C)(C)C)ccc21"
  Experimental system: "Nuclear receptor subfamily 1 group I member 2 (Homo sapiens, UniProt O75469)"
  Relation sign: "<"
  pEC50: 4.52
- Compound string: "COc1ccccc1-c1cc2cc(C(C)(C)C(=O)NC(C)(C)C)ccc2n1CC(=O)NC(C)(C)C"
  Experimental system: "Nuclear receptor subfamily 1 group I member 2 (Homo sapiens, UniProt O75469)"
  Relation sign: "="
  pEC50: 6.13
- Compound string: "CC(C)(C)NC(=O)Cn1c(-c2cc(F)cc(C(F)(F)F)c2)cc2cc(C(C)(C)C(=O)NC(C)(C)C)ccc21"
  Experimental system: "Nuclear receptor subfamily 1 group I member 2 (Homo sapiens, UniProt O75469)"
  Relation sign: "<"
  pEC50: 4.52
- Compound string: "CC(C)(C)NC(=O)Cn1c(-c2ccccc2OC(F)(F)F)cc2cc(C(C)(C)C(=O)NC(C)(C)C)ccc21"
  Experimental system: "Nuclear receptor subfamily 1 group I member 2 (Homo sapiens, UniProt O75469)"
  Relation sign: "<"
  pEC50: 4.52
